- Tested on: COLO 205 colon
- Assay Remarks: NCI tumour cell line growth inhibition, 48 h
Let's look at some molecules and their measured TGI.

Worked cases, TGI given:
{"Molecule": "CC(C(=O)ON1C(=O)CCC1=O)c1ccc(C(=O)c2ccccc2)s1 (stereo not given)", "TGI": "> 100 µM"}
{"Molecule": "Nc1nc2c(c(=O)[nH]1)N(C=O)C(CNc1ccc(C(=O)N[C@@H](CCC(=O)O)C(=O)O)cc1)CN2 (stereo not given in full)", "TGI": "> 125 µM"}
{"Molecule": "CC1(C)[C@@H](Cn2cnc3c(N)ncnc32)CC[C@@]1(C)CO", "TGI": "> 100 µM"}

Name the recorded TGI for CCNC(=O)C#CC(=O)NCC .
> 100 µM

Query: TGI; subject: NC(=Nc1ccc(O)cc1)S(=O)(=O)O
> 100 µM

Using the record for COc1ccccc1C1SCC(=O)N1c1ccc(-c2ccc(-n3c(-c4ccccc4)nc4ccccc4c3=O)cc2)cc1 (stereo not given) , report its TGI.
> 100 µM

TGI for O=C1C[C@@H]2C(COC(=O)c3ccccc3)N(OCc3ccccc3)C[C@@H]2O1 (stereo not given in full) ?
> 100 µM

Query: TGI; subject: N=c1nnc(=O)c2c(s1)-n1ncc(C(=O)O)c1NN2
> 100 µM

# TGI lookup, item CC(=O)N1CCc2c([nH]c3ccc(Br)cc23)C1c1ccccc1 (stereo not given)
> 10 µM

Dear colleague, I am looking for the recorded TGI of the following molecule: COc1cccc(NC(=O)CC(=O)N2N=C(N(CCC#N)c3ccccc3C)CC2c2ccccc2)c1 (stereo not given)
> 100 µM

* * *

- Test system: UACC-62 melanoma
- Assay Remarks: NCI tumour cell line growth inhibition, 48 h
Observable: TGI

Example entries begin here.
{"Molecule": "Clc1cc2c(c(CSC3=NCN(CC4CC4)CN3)c1)OCOC2", "TGI": "35.3 µM"}
{"Molecule": "Cc1ccnc2[nH]c(-c3cccc(Cl)c3)cc(=O)c12", "TGI": "> 100 µM"}
{"Molecule": "C=CCOc1ccccc1N=N/C(C#N)=N\\Nc1ccccc1OCC=C", "TGI": "> 100 µM"}
{"Molecule": "CC(=O)OC1CC2C(C)(C)C(=O)C=C[C@]2(C)C2CCC3(C)C(c4ccoc4)C(=O)[C@H]4O[C@]43[C@]12C (stereo not given in full)", "TGI": "64.2 µM"}
{"Molecule": "O=C(Nc1nc2ccccc2n1Cc1ccccc1)NC12CC3CC(CC(C3)C1)C2", "TGI": "> 100 µM"}
{"Molecule": "CCCCCCCCCCCCCCCCSCC(COC)COP(=O)([O-])OCC[N+](C)(C)C (stereo not given)", "TGI": "19.6 µM"}
{"Molecule": "CCCCCC(=O)N[C@@H](c1ccccc1)C(O)C(=O)OC1C[C@@]2(O)C(OC(=O)c3ccccc3)C3[C@](C)(C(=O)[C@H](O)C(=C1C)C2(C)C)C(OC1OCC(O)C(O)C1O)C[C@H]1OC[C@@]31OC(C)=O (stereo not given in full)", "TGI": "> 100 µM"}
{"Molecule": "CC1(C)N=C(C(N)=O)c2ncn(CCO)c2N1", "TGI": "> 100 µM"}

What value of measured TGI is listed for CCN(CC)CCCOC(=O)/C=C/c1c(C)[nH]c(=O)[nH]c1=O ?
> 625 µM

Reported TGI, molecule O=C1C(F)=CC(COC(c2ccccc2)(c2ccccc2)c2ccccc2)OC1n1cc(F)c(=O)[nH]c1=O (stereo not given) : ____
3.62 µM

TGI lookup needed for O=C1C=C(Br)C(=O)C12CCc1ccccc12 (stereo not given) , thanks.
32 µM

# get_value(readout='TGI', item= CC(C)C(C/C=C1\CC(CO)(COC(=O)c2ccccc2)OC1=O)C(C)C (stereo not given) )
> 100 µM

Need TGI, item CC[C@@]1(O)C(=O)NCc2c1cc1n(c2=O)Cc2cc3c(N)cccc3nc2-1
20.2 µM

Returns the measured TGI for the input molecule. Input: Clc1ccc2sc(-n3ccc4ccccc43)nc2c1
> 100 µM

// TGI lookup, key: O=c1[nH]c(=O)n(C2OC(CO)C(O)C2O)c2c1CCCC2 (stereo not given)
> 100 µM

From: PubChem BioAssay (NCI)
